Property: inhibition; scope: individual compounds
target: NT-3 growth factor receptor (Homo sapiens); details: at 0.1 µM

>  <test_smiles>
ON=C1CCc2cc(-c3nc(C4CCNCC4)[nH]c3-c3ccncc3)ccc21

>  <system_under_test>
NT-3 growth factor receptor (Homo sapiens)

>  <quantity_unit>
%

>  <inhibition>
-1.73

$$$$
>  <test_smiles>
[O-][S+]1CCN(Cc2ccc(-c3ccc4ncnc(Nc5ccc(OCc6ccccc6)c(Cl)c5)c4c3)o2)CC1

>  <system_under_test>
NT-3 growth factor receptor (Homo sapiens)

>  <quantity_unit>
%

>  <inhibition>
0.66

$$$$
>  <test_smiles>
NS(=O)(=O)c1ccc(N/N=C2\C(=O)Nc3ccc(Cl)cc32)cc1

>  <system_under_test>
NT-3 growth factor receptor (Homo sapiens)

>  <quantity_unit>
%

>  <inhibition>
9.02

$$$$
>  <test_smiles>
NC(=O)c1cccc(Nc2nccc(Nc3cccc(F)c3)n2)c1

>  <system_under_test>
NT-3 growth factor receptor (Homo sapiens)

>  <quantity_unit>
%

>  <inhibition>
-1.62

$$$$
>  <test_smiles>
N#Cc1cccc(Nc2nccc(-c3cnn4ncccc34)n2)c1

>  <system_under_test>
NT-3 growth factor receptor (Homo sapiens)

>  <quantity_unit>
%

>  <inhibition>
28.2

$$$$
>  <test_smiles>
COc1cc2ncnc(Nc3ccc4c(cnn4Cc4ccccc4)c3)c2cc1OC

>  <system_under_test>
NT-3 growth factor receptor (Homo sapiens)

>  <quantity_unit>
%

>  <inhibition>
1.5

$$$$
>  <test_smiles>
CS(=O)(=O)CCNCc1nc(-c2ccc3ncnc(Nc4ccc(OCc5cccc(C(F)(F)F)c5)cc4)c3c2)cs1

>  <system_under_test>
NT-3 growth factor receptor (Homo sapiens)

>  <quantity_unit>
%

>  <inhibition>
1.39

$$$$
>  <test_smiles>
CC(C)c1ccc2c(c1)NC(=O)/C2=N/Nc1ccc(S(N)(=O)=O)cc1

>  <system_under_test>
NT-3 growth factor receptor (Homo sapiens)

>  <quantity_unit>
%

>  <inhibition>
7.71

$$$$
>  <test_smiles>
Cc1cc(O)cc(C)c1/C=C/c1cncc(C(=O)N(C)C)c1

>  <system_under_test>
NT-3 growth factor receptor (Homo sapiens)

>  <quantity_unit>
%

>  <inhibition>
2.73

$$$$
>  <test_smiles>
NS(=O)(=O)c1cccc(Nc2cc(-c3ccc(F)cc3)n[nH]2)c1

>  <system_under_test>
NT-3 growth factor receptor (Homo sapiens)

>  <quantity_unit>
%

>  <inhibition>
6.62

$$$$
>  <test_smiles>
NS(=O)(=O)c1ccc(Nc2cc(-c3cccc(O)c3)n[nH]2)cc1

>  <system_under_test>
NT-3 growth factor receptor (Homo sapiens)

>  <quantity_unit>
%

>  <inhibition>
5.55

$$$$
>  <test_smiles>
O=C1Nc2ccc(-c3cccnc3)cc2C1=Cc1cc(Br)c(O)c(Br)c1

>  <system_under_test>
NT-3 growth factor receptor (Homo sapiens)

>  <quantity_unit>
%

>  <inhibition>
4.91

$$$$
>  <test_smiles>
COc1cccc(-n2ncc3c(N/N=C/c4ccc(S(C)(=O)=O)cc4)ncnc32)c1

>  <system_under_test>
NT-3 growth factor receptor (Homo sapiens)

>  <quantity_unit>
%

>  <inhibition>
6.62

$$$$
>  <test_smiles>
Nc1nccc(-c2c(-c3ccc(F)cc3)nn3cc(C(F)(F)F)ccc23)n1

>  <system_under_test>
NT-3 growth factor receptor (Homo sapiens)

>  <quantity_unit>
%

>  <inhibition>
0.11

$$$$
>  <test_smiles>
CC(C)c1ccc(Nc2nccc(-c3cnn4ncccc34)n2)cc1

>  <system_under_test>
NT-3 growth factor receptor (Homo sapiens)

>  <quantity_unit>
%

>  <inhibition>
3.36

$$$$
>  <test_smiles>
Nc1ccc(C#Cc2cncnc2Nc2ccc(OCc3cccc(F)c3)c(Cl)c2)cc1

>  <system_under_test>
NT-3 growth factor receptor (Homo sapiens);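 further: mean percent inhibition of TRKC, reported within the GSK PKIS dataset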

>  <quantity_unit>
%

>  <inhibition>
2.2

$$$$
